# System: Malate dehydrogenase and diaphorase
# Protocol: Formation of formazan dyes: Malate dehydrogenase and diaphorase, absence of malate (TABLE 9)
# Assay type: biochemical, pig heart
# Assay context: Malate dehydrogenase and diaphorase, absence of malate; 12 h
Property name: Formation of formazan dyes, absorbance, Means 12 h
Number only, no unit.

Illustrative cases are given below, each with its answer.
- Compound: "COc1cc([N+](=O)[O-])ccc1-[n+]1nc(-c2ccc(S(=O)(=O)[O-])cc2S(=O)(=O)[O-])nn1-c1ccc([N+](=O)[O-])cc1.[Na+] [WST-8]"
  Measured on: "Malate dehydrogenase and diaphorase"
  Reading: 2.89
- Compound: "O=[N+]([O-])c1ccc(-[n+]2nc(-c3ccc(S(=O)(=O)[O-])cc3S(=O)(=O)[O-])nn2-c2ccc(I)cc2)cc1.[Na+] [WST-1]"
  Measured on: "Malate dehydrogenase and diaphorase"
  Reading: 1.75

Exercise: For the compound Cc1nc(-[n+]2nc(-c3cccc(OCC(=O)O)c3)nn2-c2ccc(S(=O)(=O)[O-])cc2)sc1C [MTS] , what Formation of formazan dyes, absorbance, Means 12 h is on record?
Key: 0.25

Exercise: Item: COc1cc([N+](=O)[O-])c(S(=O)(=O)[O-])cc1-n1nc(C(=O)Nc2ccccc2)n[n+]1-c1cc(S(=O)(=O)O)c([N+](=O)[O-])cc1OC [XTT]
Key: 0.66

Exercise: Item: COc1cc(-c2ccc(-[n+]3nc(-c4ccc(C(=O)N(CCS(=O)(=O)[O-])CCS(=O)(=O)[O-])cc4)nn3-c3nc4ccccc4s3)c(OC)c2)ccc1-[n+]1nc(-c2ccc(C(=O)N(CCS(=O)(=O)[O-])CCS(=O)(=O)[O-])cc2)nn1-c1nc2ccccc2s1.[Na+].[Na+] [WST-5]
Key: 2.33

---

# Tested on: Malate dehydrogenase and diaphorase
# Protocol: Formation of formazan dyes: Malate dehydrogenase and diaphorase, absence of malate (TABLE 9)
# Assay type: biochemical, pig heart
# Assay context: Malate dehydrogenase and diaphorase, absence of malate; 6 h
Hi, to clarify the labels: True covers Formation of formazan dyes, absorbance, Means 6 h from 2 upward, False covers anything below 2.

Examples with answers:
- Compound: "COc1cc(-c2ccc(-[n+]3nc(-c4ccc(C(=O)N(CCS(=O)(=O)[O-])CCS(=O)(=O)[O-])cc4)nn3-c3nc4ccccc4s3)c(OC)c2)ccc1-[n+]1nc(-c2ccc(C(=O)N(CCS(=O)(=O)[O-])CCS(=O)(=O)[O-])cc2)nn1-c1nc2ccccc2s1.[Na+].[Na+] [WST-5]"
  Qualitative label: "True"
- Compound: "O=[N+]([O-])c1ccc(-[n+]2nc(-c3ccc(S(=O)(=O)[O-])cc3S(=O)(=O)[O-])nn2-c2ccc(I)cc2)cc1.[Na+] [WST-1]"
  Qualitative label: "False"
- Compound: "COc1cc([N+](=O)[O-])ccc1-[n+]1nc(-c2ccc(S(=O)(=O)[O-])cc2S(=O)(=O)[O-])nn1-c1ccc([N+](=O)[O-])cc1.[Na+] [WST-8]"
  Qualitative label: "True"
- Compound: "COc1cc([N+](=O)[O-])c(S(=O)(=O)[O-])cc1-n1nc(C(=O)Nc2ccccc2)n[n+]1-c1cc(S(=O)(=O)O)c([N+](=O)[O-])cc1OC [XTT]"
  Qualitative label: "False"

Pending compound:
Exercise: Form field: Formation of formazan dyes, absorbance, Means 6 h at least 2? Entry: Cc1nc(-[n+]2nc(-c3cccc(OCC(=O)O)c3)nn2-c2ccc(S(=O)(=O)[O-])cc2)sc1C [MTS]
Key: False
